- system: human 11β-HSD1 (Homo sapiens, UniProt P28845)
- Construct: expressed in transfected cells
- Sequence (P28845 whole entry): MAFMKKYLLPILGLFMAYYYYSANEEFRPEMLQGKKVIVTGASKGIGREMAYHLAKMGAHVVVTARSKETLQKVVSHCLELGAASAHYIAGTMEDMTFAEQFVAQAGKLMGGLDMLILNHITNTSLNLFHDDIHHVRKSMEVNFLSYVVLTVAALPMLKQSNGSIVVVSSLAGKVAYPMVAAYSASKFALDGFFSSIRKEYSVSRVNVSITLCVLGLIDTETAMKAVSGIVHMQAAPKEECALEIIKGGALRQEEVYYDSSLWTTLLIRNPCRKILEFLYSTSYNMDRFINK
- method: Enzyme inhibitory activity assay, lysate of HEK293 cells stably expressing human 11β-HSD1, cortisol by competitive ELISA
- Format: biochemical
- measurement.parameters: Table 1; cell lysate, 100 nmol/L cortisone, NADPH, 37° C. 1 hour; read-out: in vitro assay (IC50 uM) h HSD1
readout.label: log10 of IC50 (log10 of the value in µM)

{"columns": ["molecule", "readout.label", "reported.measurement"],
 "data": [
  ["CC1(C)C(=O)N([C@H]2C3CC4CC2C[C@](C(N)=O)(C4)C3)C1c1ccnc2ccccc12 (stereo partly drawn) [Example 51]", "log10 of IC50", -1.10],
  ["CC1(C)C(=O)N([C@H]2C3CC4CC2C[C@](C(N)=O)(C4)C3)C1c1cccc2c1OCO2 (stereo partly drawn) [Example 15]", "log10 of IC50", -1.51],
  ["COc1ccc(C2N(C3C4CC5CC(C4)CC3C5)C(=O)C2(C)C)c(C)c1 (stereo not drawn) [Example 56]", "log10 of IC50", -2.10],
  ["COc1ccc(C2N(C3C4CC5CC(C4)CC3C5)C(=O)C2(C)C)c(F)c1 (stereo not drawn) [Example 40]", "log10 of IC50", -2.23],
  ["COc1cccc(C2N(C3C4CC5CC(C4)CC3C5)C(=O)C2(C)C)c1 (stereo not drawn) [Example 34]", "log10 of IC50", -1.92],
  ["CC1(C)C(=O)N([C@H]2C3CC4CC2C[C@](O)(C4)C3)C1c1cccc(Cl)c1Cl (stereo partly drawn) [Example 46]", "log10 of IC50", -2.09],
  ["CC1(C)C(=O)N(C2C3CC4CC(C3)CC2C4)C1c1cccc2c1OCC=CC2 (stereo not drawn) [Example 67]", "log10 of IC50", -1.19],
  ["CC1(C)C(=O)N(C2C3CC4CC(C3)CC2C4)C1c1ccc(F)c(Cl)c1 (stereo not drawn) [Example 29]", "log10 of IC50", -1.96],
  ["CC1(C)C(=O)N(C2C3CC4CC(C3)CC2C4)C1c1ccc(F)c(C(F)(F)F)c1 (stereo not drawn) [Example 32]", "log10 of IC50", -1.62],
  ["CC1(C)C(=O)N([C@H]2C3CC4CC2C[C@](C(N)=O)(C4)C3)C1c1cccc2cccnc12 (stereo partly drawn) [Example 20]", "log10 of IC50", -1.24],
  ["CC1(C)C(=O)N(C2C3CC4CC(C3)CC2C4)C1c1ccc(F)c(F)c1 (stereo not drawn) [Example 27]", "log10 of IC50", -1.77],
  ["CC1(C)C(=O)N(C2C3CC4CC(C3)CC2C4)C1C1(c2ccccc2)CC1 (stereo not drawn) [Example 71]", "log10 of IC50", -1.23],
  ["CC1(C)C(=O)N(C2C3CC4CC(C3)CC2C4)C1Cc1ccccc1 (stereo not drawn) [Example 69]", "log10 of IC50", -1.70],
  ["CC1(C)C(=O)N(C2C3CC4CC(C3)CC2C4)C1C1(c2ccc(Cl)cc2)CC1 (stereo not drawn) [Example 70]", "log10 of IC50", -0.96],
  ["CC1(C)C(=O)N(C2C3CC4CC(C3)CC2C4)C1c1ccccc1 (stereo not drawn) [Example 1]", "log10 of IC50", -1.89]
]}

Data credit: patent US8236789B2
